# Target under test: Ret^wt (Ba/F3) (Homo sapiens)
# Construct: candidates are KIF5B, CCDC6, TEL (ETV6), or none (full-length RET)
# Sequence (P07949 whole entry, change not shown): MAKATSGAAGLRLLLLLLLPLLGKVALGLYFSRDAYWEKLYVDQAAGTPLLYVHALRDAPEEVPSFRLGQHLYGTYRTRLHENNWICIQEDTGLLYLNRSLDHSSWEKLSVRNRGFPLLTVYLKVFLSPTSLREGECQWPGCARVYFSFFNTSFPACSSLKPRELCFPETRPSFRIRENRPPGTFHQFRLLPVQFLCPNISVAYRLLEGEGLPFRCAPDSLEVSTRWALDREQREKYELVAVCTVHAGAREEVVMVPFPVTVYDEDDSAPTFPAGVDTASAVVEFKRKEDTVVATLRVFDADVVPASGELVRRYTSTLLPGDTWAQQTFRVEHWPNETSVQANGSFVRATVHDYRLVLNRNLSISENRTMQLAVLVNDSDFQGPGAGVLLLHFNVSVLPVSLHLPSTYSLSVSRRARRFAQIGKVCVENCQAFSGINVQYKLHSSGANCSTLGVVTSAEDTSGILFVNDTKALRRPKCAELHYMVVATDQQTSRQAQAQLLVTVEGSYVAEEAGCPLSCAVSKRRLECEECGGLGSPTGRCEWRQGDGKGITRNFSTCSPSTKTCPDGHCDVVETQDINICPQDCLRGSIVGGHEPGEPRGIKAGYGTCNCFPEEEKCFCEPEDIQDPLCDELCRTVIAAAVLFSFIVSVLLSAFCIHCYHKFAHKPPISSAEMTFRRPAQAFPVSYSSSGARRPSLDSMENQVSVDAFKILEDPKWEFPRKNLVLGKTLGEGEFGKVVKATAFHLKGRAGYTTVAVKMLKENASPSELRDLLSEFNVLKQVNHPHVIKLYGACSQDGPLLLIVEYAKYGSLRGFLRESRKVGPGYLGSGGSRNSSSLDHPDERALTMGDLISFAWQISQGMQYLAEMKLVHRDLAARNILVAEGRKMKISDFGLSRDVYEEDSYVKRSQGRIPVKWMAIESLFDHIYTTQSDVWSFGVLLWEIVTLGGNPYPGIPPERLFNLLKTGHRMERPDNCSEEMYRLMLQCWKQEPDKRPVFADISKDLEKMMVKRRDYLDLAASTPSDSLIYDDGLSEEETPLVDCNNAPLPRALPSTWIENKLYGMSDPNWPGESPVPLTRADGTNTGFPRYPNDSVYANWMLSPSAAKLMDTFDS
# Assay: Cancer cell proliferation inhibition, MTS assay, 72 hours
# Assay type: cell-based
# Test conditions: read-out: Ret^wt (Ba/F3) IC50
Readout label: GI50 (nM)
The figure you give is taken to be in nM; do not add the unit.

COc1cc(NC(=O)c2ccc(C)c(C#Cc3cnc4c(Nc5cnn(C)c5)cccn34)c2)cc(OC)c1 251

Problem: Item "CCN1CCN(Cc2ccc(NC(=O)c3ccc(C)c(C#Cc4cnc5c(Nc6ccn(C)n6)cccn45)c3)cc2C(F)(F)F)CC1" has what recorded GI50?
Solution: 4

Problem: Subsequent entry: "Cc1ccc(C(=O)Nc2cccc(F)c2)cc1C#Cc1cnc2c(Nc3cnn(C)c3)cccn12"
Solution: 12800

---

Reported Kd, JAK2(JH1domain-catalytic) (Homo sapiens, UniProt O60674).

Molecule	Readout label	Assay value
Cc1ccc(C(=O)Nc2ccc(CN3CCN(C)CC3)c(C(F)(F)F)c2)cc1C#Cc1cnc2c(Nc3cnn(C)c3)cccn12 [Example 1]	Kd	220 nM

Problem: # input molecule: CCN1CCN(Cc2ccc(NC(=O)c3ccc(C)c(C#Cc4cnc5c(Nc6cnn(C)c6)cccn45)c3)cc2C(F)(F)F)CC1 [Example 8] ; wanted: its Kd
Solution: 270 nM

---

# Tested on: A375
# Assay: Cancer cell proliferation inhibition, CCK-8, 72 hours
# Format: cell-based
# Test conditions: Homo sapiens, A-375, 72 h
Readout label: pIC50
Lab note: report pIC50 as minus log10 of the concentration in molar units, number only.

Some entries whose results are on file:
Compound	Assay value
Cc1cn(-c2cc(NC(=O)c3ccc(C)c(C#Cc4cnc5c(Nc6cnn(CCN(C)C)c6)cccn45)c3)cc(C(F)(F)F)c2)cn1	3.44
Cc1ccc(C(=O)Nc2ccc(CN3CCC(N(C)C)C3)c(C(F)(F)F)c2)cc1C#Cc1cnc2c(Nc3cnn(C(C)C)c3)cccn12 (stereo not drawn)	6.12

Problem: Value lookup for pIC50; key = "Cc1ccc(C(=O)Nc2ccc(CN3CCCN(C)CC3)c(C(F)(F)F)c2)cc1C#Cc1cnc2c(Nc3cnn(C(C)C)c3)cccn12"
Solution: 6.18

---

# Target under test: T315I (Ba/F3) (Homo sapiens, UniProt P00519, T315I, cells depend on it)
# Construct: fused on or other part: P11274 (Breakpoint cluster region protein)
# Assay: Cancer cell proliferation inhibition, CCK-8, 72 hours
# Type: cell-based
# Test conditions: read-out: T315I (Ba/F3) IC50
Readout label: GI50 (µM)
Please state the figure in µM; there is no need to write the unit.

Some entries whose results are on file:
Compound	Readout label	Assay value
Cc1ccc(C(=O)Nc2ccc(CN3CCC(N(C)C)C3)c(C(F)(F)F)c2)cc1C#Cc1cnc2c(Nc3cnn(CCCN(C)C)c3)cccn12 (stereo not drawn) [Example 35]	GI50	0.247
Cc1ccc(C(=O)Nc2cccc(C(F)(F)F)c2)cc1C#Cc1cnc2c(Nc3cnn(C4CCNCC4)c3)cccn12 [Example 11]	GI50	0.00634
Cc1ccc(C(=O)Nc2ccc(CN3CCN(C)CC3)c(C(F)(F)F)c2)cc1C#Cc1cnc2c(Nc3cnn(CCCN(C)C)c3)cccn12 [Example 26]	GI50	0.158
Cc1ccc(C(=O)Nc2ccc(CN3CCN(C)[C@@H](C)C3)c(C(F)(F)F)c2)cc1C#Cc1cnc2c(Nc3cnn(C)c3)cccn12 [Example 47]	GI50	0.025

Problem: Look at this compound and give its reported GI50. Cc1ccc(C(=O)Nc2ccc(CN3CCN(C)[C@H](C)C3)c(C(F)(F)F)c2)cc1C#Cc1cnc2c(Nc3cnn(C)c3)cccn12 [Example 31]
Solution: 0.0542

Problem: Okay, and Cc1ccc(NC(=O)c2ccc(CN3CCN(C)CC3)c(C(F)(F)F)c2)cc1C#Cc1cnc2c(Nc3cnn(C(C)C)c3)cccn12 [Example 77] ?
Solution: 0.0846

---

Listed here are compounds together with their documented pIC50.
# Test system: Ret^Parental (Ba/F3)
# Assay: Cancer cell proliferation inhibition, MTS assay, 72 hours
# Type: cell-based
# Test conditions: Mus musculus, BaF3
pIC50 here: minus log base 10 of the concentration, concentration in moles per litre.

Compound	Assay value
CCN1CCN(Cc2ccc(NC(=O)c3ccc(C)c(C#Cc4cnc5c(Nc6ccn(C)n6)cccn45)c3)cc2C(F)(F)F)CC1 [Example 10]	5.60

Problem: If you can, please state the reported pIC50 value of Cc1ccc(C(=O)Nc2ccc(CN3CCN(C)CC3)c(C(F)(F)F)c2)cc1C#Cc1cnc2c(Nc3cnn(C)c3)cccn12 [Example 1] .
Solution: 5.92

Problem: // same read-out, input: CCN1CCN(Cc2ccc(NC(=O)c3ccc(C)c(C#Cc4cnc5c(Nc6cnn(C)c6)cccn45)c3)cc2C(F)(F)F)CC1 [Example 8]
Solution: 5.88

Problem: And what about the compound Cc1ccc(C(=O)Nc2cccc(C(F)(F)F)c2)cc1C#Cc1cnc2c(Nc3cnn(C4CCNCC4)c3)cccn12 [Example 11] ?
Solution: 5.62

Problem: // same read-out, input: Cc1ccc(C(=O)Nc2ccc(Cl)cc2)cc1C#Cc1cnc2c(Nc3cnn(C)c3)cccn12 [Example 7]
Solution: 5.12

Problem: Next compound: Cc1ccc(C(=O)Nc2ccc(CN3CCN(C)CC3)c(C(F)(F)F)c2)cc1C#Cc1cnc2c(Nc3ccn(C)n3)cccn12 [Example 9]
Solution: 5.41

Problem: Lookup Cc1ccc(C(=O)Nc2ccc(CN3CCN(C)CC3)c(C(F)(F)F)c2)cc1C#Cc1cnc2c(Nc3cnn(C(C)C)c3)cccn12 [Example 14]
Solution: 5.74

Problem: And for CCN1CCN(Cc2ccc(NC(=O)c3ccc(C)c(C#Cc4cnc5c(Nc6cnn(C(C)C)c6)cccn45)c3)cc2C(F)(F)F)CC1 [Example 15] ?
Solution: 5.67

---

# Test system: M-NFS-60
# Assay: Cancer cell proliferation inhibition, CCK-8, 72 hours
# Assay type: cell-based
Hi! Could you tag entries with IC50 below 40 nM as Condition met, and those at or above as Condition not met? Much appreciated.

A selection of reference data follows.
Cc1ccc(C(=O)Nc2ccc(CN3CCN(C)[C@H](C)C3)c(C(F)(F)F)c2)cc1C#Cc1cnc2c(Nc3cnn(C)c3)cccn12 Condition not met
Cc1ccc(NC(=O)c2ccc(CN3CCN(C)CC3)c(C(F)(F)F)c2)cc1C#Cc1cnc2c(Nc3cnn(C)c3)cccn12 Condition not met

Problem: Please indicate whether the reported IC50 of "COCCn1cc(Nc2cccn3c(C#Cc4cc(C(=O)Nc5ccc(CN6CCN(C)[C@@H](C)C6)c(C(F)(F)F)c5)ccc4C)cnc23)cn1" is strictly below 40 nM.
Solution: Condition met

Problem: Moving on to "CCN1CCN(Cc2ccc(NC(=O)c3ccc(C)c(C#Cc4cnc5c(Nc6ccn(C)n6)cccn45)c3)cc2C(F)(F)F)CC1"
Solution: Condition not met

Problem: Can you check "CN1CCN(Cc2ccc(NC(=O)c3cccc(C#Cc4cnc5c(Nc6cnn(C)c6)cccn45)c3)cc2C(F)(F)F)CC1" next?
Solution: Condition met

---

Entries annotated with measured IC50
# Tested on: MDA-MB-231
# Assay: Real time cell proliferation, IncuCyte ZOOM, 72 hours
# Format: cell-based
# Test conditions: Homo sapiens, MDA-MB-231, 72 h
Give the number; nM is assumed, so skip it.

Cc1ccc(Nc2cccn3c(C#Cc4cc(C(=O)Nc5ccc(CN6CCN(C)CC6)c(C(F)(F)F)c5)ccc4C)cnc23)nc1 1560

Problem: Item "Cc1ccc(C(=O)Nc2ccc(CN3CC[C@@H](N(C)C)C3)c(C(F)(F)F)c2)cc1C#Cc1cnc2c(Nc3cnn(C)c3)cccn12" with MDA-MB-231 - IC50?
Solution: 325

Problem: Thanks! And "CN1CCN(Cc2ccc(NC(=O)c3ccc(F)c(C#Cc4cnc5c(Nc6cnn(C)c6)cccn45)c3)cc2C(F)(F)F)CC1" ?
Solution: 268

---

# Target under test: CSF1R (Homo sapiens, UniProt P07333)
# Construct: purchased Reaction Biology Co
# Sequence (P07333 20-972): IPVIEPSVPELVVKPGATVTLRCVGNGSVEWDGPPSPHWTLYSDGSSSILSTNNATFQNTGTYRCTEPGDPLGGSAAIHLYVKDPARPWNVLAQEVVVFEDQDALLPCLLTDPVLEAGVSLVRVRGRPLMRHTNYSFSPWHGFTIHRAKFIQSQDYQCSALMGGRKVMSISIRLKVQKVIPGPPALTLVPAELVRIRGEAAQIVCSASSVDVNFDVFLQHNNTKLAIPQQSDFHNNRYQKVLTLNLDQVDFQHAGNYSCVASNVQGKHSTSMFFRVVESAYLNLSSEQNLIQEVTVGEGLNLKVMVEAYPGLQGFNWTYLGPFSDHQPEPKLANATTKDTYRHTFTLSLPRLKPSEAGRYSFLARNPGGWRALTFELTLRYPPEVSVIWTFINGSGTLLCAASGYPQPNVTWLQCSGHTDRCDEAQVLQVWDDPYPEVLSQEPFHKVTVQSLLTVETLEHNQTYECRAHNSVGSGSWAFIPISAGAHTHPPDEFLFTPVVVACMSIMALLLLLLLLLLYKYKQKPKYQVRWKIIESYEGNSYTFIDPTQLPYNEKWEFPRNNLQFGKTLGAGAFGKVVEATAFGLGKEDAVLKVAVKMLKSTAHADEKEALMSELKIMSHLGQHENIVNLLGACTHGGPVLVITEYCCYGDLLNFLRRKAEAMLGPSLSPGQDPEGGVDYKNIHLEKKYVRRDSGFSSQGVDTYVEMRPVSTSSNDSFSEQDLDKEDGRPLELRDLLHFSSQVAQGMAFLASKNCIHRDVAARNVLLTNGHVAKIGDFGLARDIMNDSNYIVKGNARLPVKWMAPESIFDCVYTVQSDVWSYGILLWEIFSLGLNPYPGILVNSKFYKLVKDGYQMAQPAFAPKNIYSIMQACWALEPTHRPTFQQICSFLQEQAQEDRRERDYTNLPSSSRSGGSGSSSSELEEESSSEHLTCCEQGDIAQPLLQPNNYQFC
# Assay: Enzyme inhibitory activity (Kd), Reaction Biology Co.
# Type: binding
Below: a set of entries, each annotated with reported Kd.
A complete answer gives the number and then names the unit.

Compound	Target under test	Kd
Cc1ccc(NC(=O)C2(C(=O)Nc3ccc(F)cc3)CC2)cc1C#Cc1cnc2c(Nc3cnn(C(C)C)c3)cccn12 [Example 78]	CSF1R (Homo sapiens, UniProt P07333)	440 nM

// next entry
Problem: Need Kd of Cc1ccc(C(=O)Nc2ccc(CN3CCN(C)CC3)c(C(F)(F)F)c2)cc1C#Cc1cnc2c(Nc3cnn(C)c3)cccn12 [Example 1] , thanks.
Solution: 34 nM

---

# System: MDA-MB-231
# Assay: Real time cell proliferation, IncuCyte ZOOM, 72 hours
# Assay type: cell-based
# Test conditions: Homo sapiens, MDA-MB-231, 72 h
pIC50: −log10 of the molar value.
Class fulfilled: pIC50 at least 6. Class not fulfilled: pIC50 below 6.

Cc1cc(Nc2cccn3c(C#Cc4cc(C(=O)Nc5ccc(CN6CCN(C)CC6)c(C(F)(F)F)c5)ccc4C)cnc23)no1 fulfilled
Cc1ccc(C(=O)Nc2ccc(CN3CC[C@H](N(C)C)C3)c(C(F)(F)F)c2)cc1C#Cc1cnc2c(Nc3cnn(C)c3)cccn12 fulfilled
Cc1ccc(C(=O)Nc2ccc(CN3CCN(C)CC3)c(C(F)(F)F)c2)cc1C#Cc1cnc2c(Nc3ccn(C)n3)cccn12 fulfilled
Cc1ccc(C(=O)Nc2cccc(C(F)(F)F)c2)cc1C#Cc1cnc2c(Nc3cnn(C)c3)cccn12 not fulfilled

Could you now consider this next compound?
Problem: Identify whether the reported pIC50 of the following compound is 6 or greater: "Cc1ccc(C(=O)Nc2ccc(CN3CCN(C)[C@@H](C)C3)c(C(F)(F)F)c2)cc1C#Cc1cnc2c(Nc3cnn(CCCN(C)C)c3)cccn12"
Solution: fulfilled
